- assay method text: Clinical test in humans, single 30-min i.v. infusion, plasma PK
- Format: in vivo
- setup conditions: human, in vivo, iv, single 30-min i.v. infusion 400 μg/kg, mean
Ends that are not written are not given here.
readout name: Cmax (ng/mL)
Answers are plain numbers, in ng/mL.

[in] Quick check: Cmax of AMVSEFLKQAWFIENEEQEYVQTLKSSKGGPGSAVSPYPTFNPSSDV-NH2 [Peptide 1] ?
[out] 3420

* * *

- assay method text: PK after single intravenous injection of Peptide 1 in male rats
- Set-up: species or system male Wistar (CRL: WI(Han)) rats
- setup conditions: rat, in vivo, iv, 1 mg/kg, single IV 1.0 mg/kg, initial elimination phase, read-out: Vz
Ends that are not written are not given here.
readout name: Vd (L/kg)
Answers are plain numbers, in L/kg.

[in] Quick check: Vd of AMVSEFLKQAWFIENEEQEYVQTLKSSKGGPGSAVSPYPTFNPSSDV-NH2 [Peptide 1] ?
[out] 0.0389

* * *

- assay method text: Clinical test in humans, three 30-min i.v. infusions 8 hours apart, plasma PK
- Type: in vivo
- setup conditions: human, plasma, iv, 140 μg/kg, three 30-min i.v. infusions 8 h apart, 140 μg/kg each, GM, read-out: Cmax3
Ends that are not written are not given here.
readout name: Cmax (ng/mL)
Give bare numbers, in ng/mL.

[in] Quick check: Cmax of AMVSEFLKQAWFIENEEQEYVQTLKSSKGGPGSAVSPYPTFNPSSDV-NH2 [Peptide 1] ?
[out] 1220

* * *

- assay method text: 14-day repeat dose IV toxicity study with toxicokinetic evaluation on Day 1 and Day 14 in rats
- Type: in vivo, Wistar rats
- setup conditions: rat, in vivo, iv, 3 mg/kg/day, IV 3.0 mg/kg/day, female, Day 1
Ends that are not written are not given here.
readout name: clearance (mL/min/kg)
Numbers only, in mL/min/kg.

[in] Quick check: clearance of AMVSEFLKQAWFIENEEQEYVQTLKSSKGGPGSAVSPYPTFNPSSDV-NH2 [Peptide 1] ?
[out] 17.4

* * *

- assay method text: Clinical test in humans, three 30-min i.v. infusions 8 hours apart, plasma PK
- Type: in vivo
- setup conditions: human, in vivo, iv, 250 ug/kg, three 30-min i.v. infusions 8 h apart, 250 μg/kg each, GM, read-out: AUC0-t3
Ends that are not written are not given here.
readout name: AUC

[in] Quick check: AUC of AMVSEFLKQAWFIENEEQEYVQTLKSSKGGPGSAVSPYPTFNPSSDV-NH2 [Peptide 1] ?
[out] 2410 ng·h/mL

* * *

- assay method text: Clinical test in humans, single 30-min i.v. infusion, plasma PK
- Format: in vivo
- setup conditions: human, in vivo, iv, 200 ug/kg, single 30-min i.v. infusion 200 μg/kg, GM
Ends that are not written are not given here.
readout name: Vd (L/kg)
Give bare numbers, in L/kg.

[in] Quick check: Vd of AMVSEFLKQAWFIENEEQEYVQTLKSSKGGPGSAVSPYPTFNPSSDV-NH2 [Peptide 1] ?
[out] 0.18

* * *

- assay method text: 14-day repeat IV dose toxicity study with toxicokinetic evaluation on Day 1 and 14 in dogs
- Assay type: in vivo, beagle dogs
- setup conditions: dog, in vivo, iv, 1 mg/kg/day, IV 1.0 mg/kg/day, female, Day 1
Ends that are not written are not given here.
readout name: C0 (ng/mL)
Give bare numbers, in ng/mL.

[in] Quick check: C0 of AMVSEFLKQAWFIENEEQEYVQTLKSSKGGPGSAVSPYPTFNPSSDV-NH2 [Peptide 1] ?
[out] 6990

Hello, the source for this data is patent US20250345392A1, in case you need it.
